test system: UO-31 renal; assay: NCI tumour cell line growth inhibition, 48 h
QUANTITY KIND: TGI

[[record]]
compound = "O=S(Nc1ccccc1)c1ccc(Cl)c(Cl)c1 (stereo not drawn)"
observed = "> 100 µM"

[[record]]
compound = "CC(=O)OCC(=O)[C@@]12OC(C)(C)O[C@@H]1C[C@H]1[C@@H]3CC=C4C[C@@H](O)CC[C@]4(C)[C@H]3CC[C@@]12C"
observed = "> 100 µM"

[[record]]
compound = "CN1C(=O)C(c2c[nH]c3ccccc23)N(C)C(=O)C1c1c[nH]c2ccccc12 (stereo not drawn)"
observed = "> 100 µM"


---

test system: CCRF-CEM leukemia; assay: NCI tumour cell line growth inhibition, 48 h
QUANTITY KIND: GI50

[[record]]
molecule = "Cc1cc(=O)[nH]c2cc3c(c4c(n3Cc3ccc(Cl)cc3Cl)CC(C)(C)CC4=O)c(O)c12"
study_target = "CCRF-CEM leukemia"
observed = "82.3 µM"

[[record]]
molecule = "FC(F)(F)c1ccc(C#Cc2ccccc2C#Cc2ccccc2)cc1"
study_target = "CCRF-CEM leukemia"
observed = "26 µM"

[[record]]
molecule = "O=c1[nH]c(=O)c2cc(C3CC(O)C(CO)O3)ccc2[nH]1 (stereo not drawn)"
study_target = "CCRF-CEM leukemia"
observed = "> 100 µM"

